# assay_procedure: Metabolic stability in human liver microsomes
# Format: in vitro ADME
reported_property: CLint scaled

>>> readout_value("Cc1cc2cccc(C(=O)N[C@H]3CC[C@@]4(O)[C@H]5Cc6ccc(O)c7c6[C@@]4(CCN5CC4CC4)[C@H]3O7)c2[nH]1.Cl")
"< 38.5 mL/min/kg"

###

# tested_system: KOR (Mus musculus)
# Sequence (P33534 whole entry): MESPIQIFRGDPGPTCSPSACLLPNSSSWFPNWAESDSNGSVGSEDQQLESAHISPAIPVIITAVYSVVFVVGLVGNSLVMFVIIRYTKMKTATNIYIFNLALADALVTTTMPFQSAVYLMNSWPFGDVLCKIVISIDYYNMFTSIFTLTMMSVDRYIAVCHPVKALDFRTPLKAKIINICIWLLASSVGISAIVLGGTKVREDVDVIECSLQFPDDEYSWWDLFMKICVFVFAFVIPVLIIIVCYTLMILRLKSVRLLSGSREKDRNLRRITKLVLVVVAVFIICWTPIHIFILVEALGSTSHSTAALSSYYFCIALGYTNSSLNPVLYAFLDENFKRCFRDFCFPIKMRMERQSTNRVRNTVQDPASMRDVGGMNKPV
# assay_procedure: KOR [35S]GTPγS functional assay
# Type: biochemical
# condition_info: KOR EC50 (nM), mean ± SEM
reported_property: EC50 (nM)

>>> readout_value("Cc1cc2cccc(C(=O)N[C@H]3CC[C@@]4(O)[C@H]5Cc6ccc(O)c7c6[C@@]4(CCN5CC4CC4)[C@H]3O7)c2[nH]1.Cl [Compound 21]")
6.65

###

# tested_system: DOR (Mus musculus, UniProt P32300)
# Sequence (P32300 whole entry): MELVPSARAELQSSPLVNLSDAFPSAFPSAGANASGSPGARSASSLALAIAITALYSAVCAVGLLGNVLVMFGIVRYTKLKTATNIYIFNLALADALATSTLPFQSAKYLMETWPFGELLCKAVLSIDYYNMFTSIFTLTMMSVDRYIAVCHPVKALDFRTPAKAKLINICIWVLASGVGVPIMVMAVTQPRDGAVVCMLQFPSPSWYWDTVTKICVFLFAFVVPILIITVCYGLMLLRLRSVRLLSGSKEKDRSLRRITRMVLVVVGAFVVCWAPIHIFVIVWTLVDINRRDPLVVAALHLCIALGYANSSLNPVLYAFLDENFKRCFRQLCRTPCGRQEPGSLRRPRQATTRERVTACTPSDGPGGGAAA
pKi: −log10 of the molar value.
The following compounds are listed with their measured pKi values.
reported_property: pKi

>>> readout_value("Cc1c[nH]c2c(C(=O)N[C@H]3CC[C@@]4(O)[C@H]5Cc6ccc(O)c7c6[C@@]4(CCN5CC4CC4)[C@H]3O7)cccc12 [Compound 30]")
7.86
>>> readout_value("O=C(N[C@H]1CC[C@@]2(O)[C@H]3Cc4ccc(O)c5c4[C@@]2(CCN3CC2CC2)[C@H]1O5)c1cccc2cc(Cl)[nH]c12 [Compound 19]")
8.74
>>> readout_value("N#Cc1cc2cccc(C(=O)N[C@@H]3CC[C@@]4(O)[C@H]5Cc6ccc(O)c7c6[C@@]4(CCN5CC4CC4)[C@H]3O7)c2[nH]1 [Compound 3]")
7.92
>>> readout_value("Cc1cc2cccc(C(=O)N[C@H]3CC[C@@]4(O)[C@H]5Cc6ccc(O)c7c6[C@@]4(CCN5CC4CC4)[C@H]3O7)c2[nH]1.Cl [Compound 21]")
7.80
>>> readout_value("O=Cc1c[nH]c2c(C(=O)N[C@H]3CC[C@@]4(O)[C@H]5Cc6ccc(O)c7c6[C@@]4(CCN5CC4CC4)[C@H]3O7)cccc12 [Compound 27]")
7.92

###

# tested_system: DOR (Mus musculus, UniProt P32300)
pKi: −log10 of the molar value.
Rule: y for pKi not less than 8, n for anything less.

>>> label_value("O=C(N[C@H]1CC[C@@]2(O)[C@H]3Cc4ccc(O)c5c4[C@@]2(CCN3CC2CC2)[C@H]1O5)c1cccc2c([N+](=O)[O-])c[nH]c12")
"n"
>>> label_value("CC(C)c1c[nH]c2c(C(=O)N[C@@H]3CC[C@@]4(O)[C@H]5Cc6ccc(O)c7c6[C@@]4(CCN5CC4CC4)[C@H]3O7)cccc12")
"n"
>>> label_value("CC(=O)Nc1c[nH]c2c(C(=O)N[C@H]3CC[C@@]4(O)[C@H]5Cc6ccc(O)c7c6[C@@]4(CCN5CC4CC4)[C@H]3O7)cccc12")
"y"
>>> label_value("O=C(N[C@H]1CC[C@@]2(O)[C@H]3Cc4ccc(O)c5c4[C@@]2(CCN3CC2CC2)[C@H]1O5)c1cccc2c(Br)c[nH]c12")
"n"

###

# tested_system: MOR (Mus musculus, UniProt P42866)
# Sequence (P42866 whole entry): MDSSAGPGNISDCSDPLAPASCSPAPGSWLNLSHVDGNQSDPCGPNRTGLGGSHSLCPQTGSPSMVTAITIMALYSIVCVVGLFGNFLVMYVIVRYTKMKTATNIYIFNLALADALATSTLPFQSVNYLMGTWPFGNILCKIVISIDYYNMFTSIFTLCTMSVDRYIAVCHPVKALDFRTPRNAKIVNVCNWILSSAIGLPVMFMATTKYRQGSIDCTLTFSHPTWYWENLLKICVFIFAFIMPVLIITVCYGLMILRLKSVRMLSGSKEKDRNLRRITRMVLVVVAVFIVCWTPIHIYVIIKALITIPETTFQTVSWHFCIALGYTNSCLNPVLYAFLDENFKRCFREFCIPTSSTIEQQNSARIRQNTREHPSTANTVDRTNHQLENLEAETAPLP
# assay_procedure: Radioligand competition binding assay, MOR
# condition_info: ratio of Ki values KOR/MOR
The following molecules are listed with their measured Selectivity κ/μ values.
reported_property: Selectivity κ/μ

>>> readout_value("O=C(N[C@H]1CC[C@@]2(O)[C@H]3Cc4ccc(O)c5c4[C@@]2(CCN3CC2CC2)[C@H]1O5)c1cccc2c([N+](=O)[O-])c[nH]c12 [Compound 26]")
9.2
>>> readout_value("Cc1c[nH]c2c(C(=O)N[C@@H]3CC[C@@]4(O)[C@H]5Cc6ccc(O)c7c6[C@@]4(CCN5CC4CC4)[C@H]3O7)cccc12 [Compound 13]")
2.2
>>> readout_value("CC(=O)c1c[nH]c2c(C(=O)N[C@@H]3CC[C@@]4(O)[C@H]5Cc6ccc(O)c7c6[C@@]4(CCN5CC4CC4)[C@H]3O7)cccc12 [Compound 11]")
"<0.3"
>>> readout_value("N#Cc1c[nH]c2c(C(=O)N[C@H]3CC[C@@]4(O)[C@H]5Cc6ccc(O)c7c6[C@@]4(CCN5CC4CC4)[C@H]3O7)cccc12 [Compound 25]")
6.3

FYI, the data here is from paper PMC10546487.
